Listing of recorded IC50 by entry.
Biological target: human VR1 (Homo sapiens, UniProt Q8NER1)
Sequence (Q8NER1 whole entry): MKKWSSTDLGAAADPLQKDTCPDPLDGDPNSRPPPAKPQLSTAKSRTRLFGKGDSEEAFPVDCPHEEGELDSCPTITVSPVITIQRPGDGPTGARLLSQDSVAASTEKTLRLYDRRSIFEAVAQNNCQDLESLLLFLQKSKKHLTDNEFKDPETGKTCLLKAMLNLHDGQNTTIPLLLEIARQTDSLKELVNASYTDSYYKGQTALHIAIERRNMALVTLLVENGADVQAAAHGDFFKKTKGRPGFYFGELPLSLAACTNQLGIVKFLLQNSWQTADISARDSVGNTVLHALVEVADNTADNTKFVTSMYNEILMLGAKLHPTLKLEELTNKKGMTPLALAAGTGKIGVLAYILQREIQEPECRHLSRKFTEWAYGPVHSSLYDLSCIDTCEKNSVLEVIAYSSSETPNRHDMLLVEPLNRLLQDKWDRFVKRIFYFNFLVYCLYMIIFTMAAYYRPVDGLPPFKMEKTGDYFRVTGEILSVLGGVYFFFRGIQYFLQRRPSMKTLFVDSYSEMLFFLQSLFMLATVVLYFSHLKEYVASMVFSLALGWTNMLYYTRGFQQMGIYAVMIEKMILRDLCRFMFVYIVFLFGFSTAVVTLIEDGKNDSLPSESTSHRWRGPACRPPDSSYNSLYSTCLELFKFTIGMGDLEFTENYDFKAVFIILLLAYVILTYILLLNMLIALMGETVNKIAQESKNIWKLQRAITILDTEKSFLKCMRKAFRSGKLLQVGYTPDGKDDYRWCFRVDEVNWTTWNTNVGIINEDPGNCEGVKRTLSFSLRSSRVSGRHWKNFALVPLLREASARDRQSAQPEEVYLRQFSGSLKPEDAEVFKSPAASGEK
Assay: Inhibition of Ca2+ entry in cells caused by proton, in rat glioma (C6BU1) cells stably expressing human VR1 (Fura 2 fluorescence)
Details: inhibition of proton-induced Ca2+ entry

Examples from the recorded data:
>  <Compound>
Cc1ccc(N2CCOc3c(C(=O)Nc4ccc(OCC(C)C)c(C(=O)N(C)C)c4)cccc32)nc1 [Example 1-077]

>  <IC50>
100 to 1000 nM

$$$$
>  <Compound>
O=C(Nc1ccc(C(F)(F)F)cc1)c1cccc2c1OCCN2c1ncc(CCO)cc1Cl [Example 1-154]

>  <IC50>
< 100 nM

$$$$
>  <Compound>
COc1ccc(NC(=O)c2cccc3c2OCCN3c2ncccc2Cl)cc1 [Example 1-023]

>  <IC50>
100 to 1000 nM

$$$$

Give recorded IC50. CN(C)c1ccc(NC(=O)c2cccc3c2OC[C@H](CO)N3c2ncccc2Cl)cc1C(F)(F)F [Example 4-20]
< 100 nM

Give recorded IC50. CC(=O)OC1CCN(c2ccc(NC(=O)c3cccc4c3OCCN4c3ccc(C)cn3)cc2F)CC1 [Example 1-170]
100 to 1000 nM

Give recorded IC50. Cc1ccc(N2c3cccc(C(=O)Nc4ccc(OC(F)(F)F)cc4)c3OC[C@@H]2CO)nc1 [Example 4-07]
< 100 nM

Give recorded IC50. Cc1ccc(N2CCOc3c(C(=O)N[C@H]4CC[C@H](C(C)C)CC4)cccc32)nc1 [Example 1-191]
< 100 nM

---

Biological target: human VR1 (Homo sapiens, UniProt Q8NER1)
Assay: Inhibition of Ca2+ entry in cells caused by proton, in rat glioma (C6BU1) cells stably expressing human VR1 (Fura 2 fluorescence)
Details: inhibition of proton-induced Ca2+ entry
Reported endpoint: IC50

Examples from the recorded data:
>  <Compound>
Cc1cnc(N2c3cccc(C(=O)Nc4ccc(N5CCOCC5)c(F)c4)c3OC[C@@H]2CO)s1 [Example 6-9]

>  <Tested system>
human VR1 (Homo sapiens, UniProt Q8NER1)

>  <IC50>
< 100 nM

$$$$
>  <Compound>
O=C(Nc1ccc(N2CCCCC2)c(C(F)(F)F)c1)c1cccc2c1OC[C@H](CO)N2c1ncccc1Cl [Example 4-22]

>  <Tested system>
human VR1 (Homo sapiens, UniProt Q8NER1)

>  <IC50>
< 100 nM

$$$$
>  <Compound>
Cc1ccc(N2c3cccc(C(=O)Nc4ccc(Cl)c(C(F)(F)F)c4)c3OC[C@@H]2CO)nc1 [Example 4-37]

>  <Tested system>
human VR1 (Homo sapiens, UniProt Q8NER1)

>  <IC50>
< 100 nM

$$$$
>  <Compound>
O=C(Nc1ccc(OC(F)(F)F)cc1)c1cccc2c1OCCN2c1ncccc1O [Example 1-210]

>  <Tested system>
human VR1 (Homo sapiens, UniProt Q8NER1)

>  <IC50>
100 to 1000 nM

$$$$
>  <Compound>
O=C(Nc1ccc(Cl)cc1)c1cccc2c1OCCN2c1ncc(CO)cc1Cl [Example 2-45]

>  <Tested system>
human VR1 (Homo sapiens, UniProt Q8NER1)

>  <IC50>
< 100 nM

$$$$
>  <Compound>
O=C(Nc1ccc(OCC(F)(F)F)cc1)c1cccc2c1OCCN2c1ncc(CO)cc1Cl [Example 2-30]

>  <Tested system>
human VR1 (Homo sapiens, UniProt Q8NER1)

>  <IC50>
< 100 nM

$$$$

Give recorded IC50. O=C(Nc1ccc(C(F)(F)F)cc1)c1cccc2c1OCCN2c1ncccc1Cl [Example 1-100]
< 100 nM

Give recorded IC50. CC(C)Oc1ccc(NC(=O)c2cccc3c2OCCN3c2ncccc2Cl)cc1C(F)(F)F [Example 1-055]
< 100 nM

Give recorded IC50. CCOC(=O)CO[C@H]1CC[C@H](NC(=O)c2cccc3c2OCCN3c2ccc(C)cn2)CC1 [Example 1-176]
100 to 1000 nM

Give recorded IC50. Cc1cnc(N2c3cccc(C(=O)Nc4ccc(C(F)(F)F)nc4)c3OC[C@@H]2CO)s1 [Example 6-10]
< 100 nM
